Listed here: items and their measured polymerase ribozyme fitness (log ratio).
B1: TPR t1 (parent)
chain: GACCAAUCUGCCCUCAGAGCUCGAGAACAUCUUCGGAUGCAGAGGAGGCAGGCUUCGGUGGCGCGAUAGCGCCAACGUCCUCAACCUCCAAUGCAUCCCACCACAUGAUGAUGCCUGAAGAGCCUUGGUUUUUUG

Variants of: B1
Experiment: polymerase ribozyme fitness, log enrichment relative to wild type (log ratio); higher = more active; in vitro selection for triplet polymerase activity
Output: the number by itself.

* A26G U112A | -0.933
* U9C C12G U55C A83G G93A C102U | -5.25
* U7A C22U G39A G44U C53U C56G G63A A68U C124A U125A | -6.98
* A26U A37C G77A C124G | -1.36
* U9C A50U C94U | -2.36
* C40G C70A | -3.86

Prompt: I am curious: what polymerase ribozyme fitness (log ratio) value has been reported for G48U A50G G58C G117U G122A ?
Response: -4.46

Prompt: Now the same for C11G G42A C72A C88U
Response: -1.46

Prompt: Now the same for G117C A119U
Response: -2.92

Prompt: Now the same for C20U C72G C102A
Response: -3.19

Prompt: Now the same for A43G G61U C82G
Response: -2.27

Prompt: Now the same for C12U A27C C49A
Response: -2.06

Prompt: Now the same for A5G G51U A83U A121C
Response: -3.06

Prompt: Now the same for C40U G110A
Response: -1.7

Prompt: Now the same for C53A G60A U92G
Response: -2.9
